Test system: MV-4-11
Test method notes: Anti-proliferative effect (CellTiter-Glo, 72 h), MV-4-11
Assay type: cell-based
Run parameters: MV-4-11 cells, median, read-out: IC50 antiproliferation assay MV-4-11 [M] (median)
Readout: IC50 (M)

| Molecule | Output unit | IC50 |
| --- | --- | --- |
| Cn1nc(COc2ccc(N3CCN(S(=O)(=O)C4CC4)CC3)cc2)c2c1COCCCCn1c(C(=O)O)c(CCCOc3cccc4ccccc34)c3cccc-2c31 (single isomer, unassigned; enantiomer 2) [Example 1-13] | M | 1.35e-06 |
| CCc1c2c(nn1C)COCCCCn1c(C(=O)O)c(CCCOc3cccc4cc(F)ccc34)c3cccc-2c31 (racemic) [Example 281] | M | 4.74e-06 |
| CCc1nn(C)c2c1-c1cccc3c(CCCOc4cccc5cc(C(F)(F)F)ccc45)c(C(=O)O)n(c13)CCCCOC2 (racemic) [Example 313] | M | 2e-05 |
| CCc1c2c(nn1CCN1CCOCC1)COCCCCn1c(C(=O)O)c(CCCOc3cccc4ccccc34)c3ccc(C)c-2c31 (single isomer, unassigned; enantiomer 2) [Example 206] | M | 1.92e-05 |
| Cc1nn(C)c2c1-c1cccc3c(CCCOc4cccc5cc(F)ccc45)c(C(=O)O)n(c13)CCCOC2 (single isomer, unassigned; enantiomer 1) | M | 5.38e-06 |
| CCc1nn(C)c2c1-c1c(C)ccc3c(C(C)CCOc4cccc5ccccc45)c(C(=O)O)n(c13)CCCCOC2 (single isomer, unassigned) [Example 274] | M | 8.02e-06 |

[I] CN1CCCn2c(C(=O)O)c(CCCOc3cccc4ccccc34)c3cccc(c32)-c2c(CCN3CCOCC3)nn(C)c2C1 (single isomer, unassigned; enantiomer 1)
[II] CN1CCCn2c(C(=O)O)c(CCCOc3cccc4ccccc34)c3cccc(c32)-c2c(nn(C)c2COc2ccc(N3CCN(S(=O)(=O)N(C)C)CC3)cc2)C1 (single isomer, unassigned; enantiomer 2) [Example 1-113]
[III] Cc1c2c(nn1C)COCCCCn1c(C(=O)O)c(CCCOc3cccc4cc(Cl)ccc34)c3cccc-2c31 (single isomer, unassigned)
[IV] Cc1c2c(nn1C)COCCCCn1c(C(=O)O)c(CCCOc3cccc4cc(F)ccc34)c3cccc-2c31 (single isomer, unassigned; enantiomer 2) [Example 302]
*Q* rank_up(items): orders items by reported IC50 in ascending numerical order. // format: requested-order list of labels
*A* I, IV, II, III

----------
Tested on: SUDHL10
Test method notes: Induction of caspase-3/7 activity (Caspase-Glo 3/7), SUDHL10
Format: cell-based
Run parameters: Homo sapiens, SU-DHL10, 3 h, caspase-3/7 induction, SUDHL10 cells, 3 h treatment; median
Readout: EC50 (µM)

| Compound | Study system | EC50 (µM) |
| --- | --- | --- |
| Cc1nn(CC(F)(F)F)c2c1-c1cccc3c(CCCOc4cccc5c4CCCC5)c(C(=O)O)n(c13)CCCCOC2 (single isomer, unassigned; enantiomer 1) [Example 162] | SUDHL10 | 23.2 |
| Cc1ccc2c(CCCOc3cccc4c3CCCC4)c(C(=O)O)n3c2c1-c1c(C)nn(C)c1COCCCC3 (racemic) | SUDHL10 | 24.8 |
| CCc1c2c(nn1C)COCCCCn1c(C(=O)O)c(CCCOc3cccc4c3CCCC4)c3cccc-2c31 (racemic) | SUDHL10 | 13.6 |

[P] Cc1c2c(nn1C)COCCCn1c(C(=O)O)c(CCCOc3cccc4ccccc34)c3cccc-2c31 (single isomer, unassigned; enantiomer 1) [Example 064]
[Q] Cc1c2c(nn1CCN1CCOCC1)CN(C)CCCn1c(C(=O)O)c(CCCOc3cccc4ccccc34)c3cccc-2c31 (racemic)
[R] CCc1c2c(nn1C)COCCCCn1c(C(=O)O)c(CCCOc3cccc4ccccc34)c3ccc(C)c-2c31 (racemic)
*Q* # desc sort on EC50 across 3 compounds Submit the labels in the order that the ranking request calls for.
*A* Q, P, R
(Q: 27.7 µM, P: 17.5 µM, R: 5.12 µM)
